# Read-out: Interleukin-8 (IL8), CXCL8 (gene 3576)
# MEASUREMENT_NOTES: BSK_LPS_IL8: BioMAP Diversity Plus: LPS Assay for Interleukin-8 (IL8) Biomarker Activity (AID 2283078)
# CONDITION: primary human HUVEC with PBMC; actives raise or lower the signal
Calls of active or inactive are those of the source. The calls were made as follows: active = hit-call score of the fitted dose curve at least 0.9, where 1 is the maximum; inactive = score below 0.9.
Could you please pick one outcome from this set? true (1) for active, false (0) for inactive

The following compounds have reported results that may help.
COMPOUND: O=NN(c1ccccc1)c1ccccc1
CLASS_NAME: false (0)
--
COMPOUND: CC#Cc1cc(C)nc(Nc2ccccc2)n1
CLASS_NAME: false (0)

Req: Hi, sorry to bother you, what did the test record for O=S(=O)(O)C(F)(F)C(F)(F)C(F)(F)C(F)(F)F ?
Resp: false (0)

Req: Hi, sorry to bother you, what did the test record for C[C@]12CCC(=O)C=C1CC[C@@H]1[C@@H]2CC[C@@]2(C)[C@H]1CC[C@]2(C)O ?
Resp: false (0)

Req: Hi, sorry to bother you, what did the test record for ClC1=C(Cl)[C@]2(Cl)[C@@H]3[C@@H](Cl)[C@H]4O[C@H]4[C@@H]3C1(Cl)C2(Cl)Cl ?
Resp: false (0)

Req: Hi, sorry to bother you, what did the test record for CCC(C)c1cc([N+](=O)[O-])cc([N+](=O)[O-])c1O (configuration not stated) ?
Resp: true (1)

Req: Hi, sorry to bother you, what did the test record for CCOC(=O)C(O)(c1ccc(Cl)cc1)c1ccc(Cl)cc1 ?
Resp: true (1)

====

# Read-out: Cytochrome P450 2C19 (Homo sapiens)
# MEASUREMENT_NOTES: LTEA_HepaRG_CYP2C19: Life Technologies and Expression Analysis (LTEA) Assay for CYP2C19 using HepaRG (AID 2283482)
# CONDITION: mRNA level, 48 h; actives raise or lower the signal
Calls of active or inactive are those of the source. Rule for the calls: active = hit-call score of the fitted dose curve at least 0.9, where 1 is the maximum; inactive = score below 0.9.
Could you please pick one outcome from this set? active, inactive

The following compounds have reported results that may help.
SMILES_NOTATION: N#Cc1ccc(N(CC(N)=O)CC(F)(F)F)cc1C(F)(F)F
CLASS_NAME: active
//
SMILES_NOTATION: CCCCCCCCOC(=O)c1ccccc1C(=O)OCCCCCCCC
CLASS_NAME: inactive
//
SMILES_NOTATION: O=C(O)C(F)(F)C(F)(F)C(F)(F)C(F)(F)C(F)(F)C(F)(F)C(F)(F)C(F)(F)F
CLASS_NAME: active
//
SMILES_NOTATION: C[C@]12CCC(=O)C=C1CC[C@@H]1[C@@H]2CC[C@]2(C)C(=O)CC[C@@H]12
CLASS_NAME: active
//
SMILES_NOTATION: Cc1ccccc1CO[C@@H]1C[C@@]2(C(C)C)CC[C@]1(C)O2
CLASS_NAME: active

Then there is this compound:
Req: Hi, sorry to bother you, what did the test record for CCOCCOC(C)=O ?
Resp: inactive

====

# System: Thyroperoxidase (TPO), gene 54314
# MEASUREMENT_NOTES: CCTE_Simmons_AUR_rTPO: CCTE's Amplex UltraRed Assay for Thyroperoxidase (TPO) Inhibition, Simmons Lab (AID 2283662)
The source made the active and inactive calls. Rule for the calls: active = hit-call score of the fitted dose curve at least 0.9, where 1 is the maximum; inconclusive = response in the unintended direction; inactive = score below 0.9.
Could you please pick one outcome from this set? active, inactive

Req: Hi, sorry to bother you, what did the test record for Sc1ccccc1 ?
Resp: inactive

Req: Hi, sorry to bother you, what did the test record for CCC(=O)O[C@H]1CC[C@H]2[C@@H]3CCC4=CC(=O)CC[C@]4(C)[C@H]3CC[C@]12C ?
Resp: inactive

Req: Hi, sorry to bother you, what did the test record for O=C(O)C(F)(F)C(F)(F)C(F)(F)C(F)(F)C(F)(F)C(F)(F)C(F)(F)C(F)(F)F ?
Resp: inactive

Req: Hi, sorry to bother you, what did the test record for CCCCCCCCOC(=O)c1ccccc1C(=O)OCCCCCCCC ?
Resp: active

Req: Hi, sorry to bother you, what did the test record for Cc1ccc(O)c(C)c1 ?
Resp: active

Req: Hi, sorry to bother you, what did the test record for C[C@]12CCC(=O)C=C1CC[C@@H]1[C@@H]2CC[C@]2(C)C(=O)CC[C@@H]12 ?
Resp: inactive

====

# SYSTEM_UNDER_TEST: guinea pig Sigma Receptor, Non-selective Binding, SIGMAR1 (gene 100135589) (UniProt Q60492)
# Sequence (Q60492 whole entry, looked up): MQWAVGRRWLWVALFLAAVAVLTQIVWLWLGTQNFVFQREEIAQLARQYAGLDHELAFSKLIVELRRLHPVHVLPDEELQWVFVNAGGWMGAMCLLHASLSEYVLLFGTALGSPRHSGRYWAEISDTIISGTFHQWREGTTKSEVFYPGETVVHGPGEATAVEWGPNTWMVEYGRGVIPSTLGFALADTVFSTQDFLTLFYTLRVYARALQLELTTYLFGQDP
# MEASUREMENT_NOTES: NVS_OR_gSIGMA_NonSelective: NovaScreen (NVS) Nuclear Receptor Binding Assay for guinea pig Sigma Receptor, Non-selective Binding (AID 2283367)
Active and inactive are the calls of the source. Rule for the calls: active = hit-call score of the fitted dose curve at least 0.9, where 1 is the maximum; inconclusive = response in the unintended direction; inactive = score below 0.9.
Could you please pick one outcome from this set? label 1 = active, label 0 = inactive

SMILES_NOTATION: CCC(=O)O[C@H]1CC[C@H]2[C@@H]3CCC4=CC(=O)CC[C@]4(C)[C@H]3CC[C@]12C
CLASS_NAME: label 0

Req: Hi, sorry to bother you, what did the test record for CCCN(CCC)N=O ?
Resp: label 0

Req: Hi, sorry to bother you, what did the test record for CCCCCCCCCC[N+](C)(C)CCCCCCCCCC ?
Resp: label 1

Req: Hi, sorry to bother you, what did the test record for C[C@]12CCC(=O)C=C1CC[C@@H]1[C@@H]2CC[C@@]2(C)[C@H]1CC[C@]2(C)O ?
Resp: label 1

====

# MEASUREMENT_NOTES: BSK_MyoF_SRB: Viability Assessment in the BioMAP Diversity Plus: MyoF Assay (AID 2284267);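 also: total protein by SRB absorbance in parallel cultures as cytotoxicity measure; cells assessed 24 h after compound addition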
# CONDITION: primary human lung fibroblasts
Calls of active or inactive are those of the source. How the source made its calls: active means hit-call score of the fitted dose curve at least 0.9, where 1 is the maximum; inactive means score below 0.9.
Could you please pick one outcome from this set? active, inactive

SMILES_NOTATION: O=C(O)C(F)(F)C(F)(F)C(F)(F)C(F)(F)C(F)(F)C(F)(F)C(F)(F)C(F)(F)F
CLASS_NAME: inactive

Req: Hi, sorry to bother you, what did the test record for Oc1c(Cl)c(Cl)c(Cl)c(Cl)c1Cl ?
Resp: active

Req: Hi, sorry to bother you, what did the test record for Sc1ccccc1 ?
Resp: inactive

Req: Hi, sorry to bother you, what did the test record for O=C(O)C(F)(F)C(F)(F)C(F)(F)C(F)(F)C(F)(F)F ?
Resp: inactive

Req: Hi, sorry to bother you, what did the test record for O=S(=O)(O)C(F)(F)C(F)(F)C(F)(F)C(F)(F)F ?
Resp: inactive

====

# Read-out: Macrophage colony-stimulating factor (MCSF), CSF1 (gene 1435)
# MEASUREMENT_NOTES: BSK_CASM3C_MCSF: BioMAP Diversity Plus: CASM3C Assay for Macrophage colony-stimulating factor (MCSF) Biomarker Activity (AID 2283044);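 also: M-CSF protein amount quantified by ELISA after 24 h exposure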
# CONDITION: primary human coronary artery smooth muscle cells; actives raise or lower the signal
The source made the active and inactive calls. Rule for the calls: active = hit-call score of the fitted dose curve at least 0.9, where 1 is the maximum; inactive = score below 0.9.

SMILES_NOTATION: ClC1=C(Cl)[C@]2(Cl)[C@@H]3[C@H]4C[C@H]([C@@H]5O[C@H]45)[C@@H]3[C@@]1(Cl)C2(Cl)Cl
outcome: inactive

SMILES_NOTATION: O=C(NC(=O)c1c(F)cccc1F)Nc1cc(Cl)c(OC(F)(F)C(F)F)c(Cl)c1
outcome: inactive

SMILES_NOTATION: C[C@]12CCC(=O)C=C1CC[C@@H]1[C@@H]2CC[C@]2(C)C(=O)CC[C@@H]12
outcome: inactive

====

# MEASUREMENT_NOTES: APR_HepG2_MitoticArrest_72hr: Apredica 72-hour HepG2 Assay for Mitotic Arrest (AID 2282918)
# CONDITION: high-content imaging, actives raise or lower the signal
# Method: APR_HepG2_72hr is a cell-based, multiplexed-readout assay that uses HepG2, a human liver cell line, with measurements taken at 72 hours after chemical dosing in a 384-well plate.APR_HepG2_MitoticArrest_72hr is one of 10 assay component(s) measured or calculated from the APR_HepG2_72hr assay. […] This assay endpoint, APR_HepG2_MitoticArrest_72hr, was analyzed with bidirectional fitting relative to DMSO as the negative control and baseline of activity. […]
Active and inactive are the calls of the source. Rule for the calls: active = hit-call score of the fitted dose curve at least 0.9, where 1 is the maximum; inactive = score below 0.9.
Could you please pick one outcome from this set? active, inactive

The following compounds have reported results that may help.
COMPOUND: O=C(O)C(F)(F)C(F)(F)C(F)(F)C(F)(F)C(F)(F)C(F)(F)C(F)(F)C(F)(F)C(F)(F)F
CLASS_NAME: active
//
COMPOUND: CCCN(CCC)N=O
CLASS_NAME: inactive
//
COMPOUND: COc1ccc(O)c(C(C)(C)C)c1
CLASS_NAME: inactive
//
COMPOUND: O=C(O)C(F)(F)C(F)(F)C(F)(F)C(F)(F)C(F)(F)C(F)(F)C(F)(F)C(F)(F)F
CLASS_NAME: active
//
COMPOUND: ClC1=C(Cl)[C@]2(Cl)[C@@H]3[C@@H](Cl)[C@H]4O[C@H]4[C@@H]3C1(Cl)C2(Cl)Cl
CLASS_NAME: active
//
COMPOUND: CC(c1ccc(O)cc1)(c1ccc(O)cc1)c1ccc(O)cc1
CLASS_NAME: active

Req: Hi, sorry to bother you, what did the test record for Clc1ccc(C(Cl)(Cl)Cl)cc1 ?
Resp: inactive

Req: Hi, sorry to bother you, what did the test record for Clc1ccc(Cl)cc1 ?
Resp: inactive
